Target or system: T1, biotin-labelled EZH2 protein (UniProt Q15910 1-746, limits assumed, biotin label (EZ-link NHS-PEO4-Biotinylation kit))
T1 construct: Probe in solution (1 ug/ml) on the KDM2B peptide microarray; also called NHS-PEO4-Biotinylation-labelled EZH2 protein; recombinant protein
T1 sequence (Q15910 whole entry): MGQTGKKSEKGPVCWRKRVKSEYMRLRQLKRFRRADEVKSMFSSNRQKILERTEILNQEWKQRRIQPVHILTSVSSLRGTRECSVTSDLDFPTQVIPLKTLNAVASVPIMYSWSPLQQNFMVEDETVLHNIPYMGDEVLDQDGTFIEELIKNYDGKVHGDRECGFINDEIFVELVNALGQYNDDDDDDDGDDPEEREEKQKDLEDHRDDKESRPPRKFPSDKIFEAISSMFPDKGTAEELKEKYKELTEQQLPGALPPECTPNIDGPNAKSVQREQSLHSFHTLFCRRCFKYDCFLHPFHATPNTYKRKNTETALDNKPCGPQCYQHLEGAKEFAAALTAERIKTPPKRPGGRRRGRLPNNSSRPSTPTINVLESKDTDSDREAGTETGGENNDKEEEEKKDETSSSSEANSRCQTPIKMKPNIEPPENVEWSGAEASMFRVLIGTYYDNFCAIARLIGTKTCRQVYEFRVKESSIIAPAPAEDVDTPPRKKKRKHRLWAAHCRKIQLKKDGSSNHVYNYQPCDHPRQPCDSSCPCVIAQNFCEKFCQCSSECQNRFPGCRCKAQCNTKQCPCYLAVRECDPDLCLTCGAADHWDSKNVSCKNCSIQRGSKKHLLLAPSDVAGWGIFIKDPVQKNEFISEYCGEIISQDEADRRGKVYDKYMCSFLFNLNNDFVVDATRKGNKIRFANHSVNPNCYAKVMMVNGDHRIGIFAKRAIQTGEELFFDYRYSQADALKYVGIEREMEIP
Protocol text: KDM2B peptide array probed with biotin-EZH2 1 ug/ml, SA-HRP/ECL;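 further: 100% is the highest background-corrected spot optical density on the membrane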;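 further: Background-corrected optical density of each spot on the membrane, given as percent of the brightest spot (100%), color developed for 5 minutes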
Measurement kind: Intensity (%)
Quote the value and follow it with the unit of measurement.

Worked examples follow.
| Binder | Val |
| --- | --- |
| RKKRRSWKNAEDRMA [peptide 174] | 0.47% |
| PVSLDLSWTNISKKQ [peptide 226] | 0.51% |
| IKMPDPDFTVRDVKL [peptide 24] | 0% |
| RTLSNESEESVKSTT [peptide 95] | 0% |
| PLGSSLSPWWRSSLT [peptide 168] | 0% |

Could you now look at the following binder, please?
Request: Item under review: HMPLLSKLHLSYCNH [peptide 248] . Reported Intensity (%)?
Result: 1.15%
